# System: J2 HIE monolayers
# RUN CONDITIONS: human, 24 h, 10 μM
Where a name gives a salt, the structure may show the parent alone.
Reported (%) Cytotoxicity values follow for various compounds
RECORDED METRIC: (%) Cytotoxicity

compound="O=C(O[C@@H]1Cc2c(O)cc(O)cc2O[C@@H]1c1cc(O)c(O)c(O)c1)c1cc(O)c(O)c(O)c1 [(-)-Epigallocatechin Gallate]" recorded_metric="(%) Cytotoxicity" observed_result=2.41
compound=O=c1[nH]cnc2c1ncn2[C@H]1CC[C@@H](CO)O1 recorded_metric="(%) Cytotoxicity" observed_result=-0.0652
compound=CN(C)[C@@H]1C(O)=C(C(N)=O)C(=O)[C@@]2(O)C(O)=C3C(=O)c4c(O)cccc4[C@@](C)(O)[C@H]3[C@H](O)[C@@H]12 recorded_metric="(%) Cytotoxicity" observed_result=3.05
compound="CC1(C)S[C@@H]2[C@H](NC(=O)[C@H](N)c3ccccc3)C(=O)N2[C@H]1C(=O)O [Ampicillin Trihydrate]" recorded_metric="(%) Cytotoxicity" observed_result=1.14
compound="Clc1ccc(COC(Cn2ccnc2)c2ccc(Cl)cc2Cl)cc1 (stereo not shown)" recorded_metric="(%) Cytotoxicity" observed_result=7.35
compound=Clc1ccccc1C(c1ccccc1)(c1ccccc1)n1ccnc1 recorded_metric="(%) Cytotoxicity" observed_result=0.51
compound=CN(C(=O)CN(CCO)CC(=O)N(C)C(C)(C)Cc1ccccc1)C(C)(C)Cc1ccccc1 recorded_metric="(%) Cytotoxicity" observed_result=1.91
compound="CO/N=C(\\C(=O)N[C@@H]1C(=O)N2C(C(=O)O)=C(COC(C)=O)CS[C@H]12)c1csc(N)n1 [Cefotaxime sodium]" recorded_metric="(%) Cytotoxicity" observed_result=0.51
compound="CC(=O)N(CC(O)CO)c1c(I)c(C(=O)NCC(O)CO)c(I)c(C(=O)NCC(O)CO)c1I (stereo not shown) [Iohexol]" recorded_metric="(%) Cytotoxicity" observed_result=1.11
compound=Nc1ccn([C@@H]2O[C@H](CO)[C@@H](O)[C@@H]2O)c(=O)n1 recorded_metric="(%) Cytotoxicity" observed_result=-0.77
compound=O=c1[nH]c(=O)n([C@H]2C[C@H](O)[C@@H](CO)O2)cc1F recorded_metric="(%) Cytotoxicity" observed_result=0.65
compound=Nc1nc2c(ncn2COCCO)c(=O)[nH]1 recorded_metric="(%) Cytotoxicity" observed_result=0.59
compound=CC(=O)OCC(CCn1cnc2cnc(N)nc21)COC(C)=O recorded_metric="(%) Cytotoxicity" observed_result=0.72
compound="Clc1ccc(C(Cn2ccnc2)OCc2ccsc2Cl)c(Cl)c1 (stereo not shown)" recorded_metric="(%) Cytotoxicity" observed_result=3.16
compound=O=C1Nc2ccc(Cl)cc2[C@@](C#CC2CC2)(C(F)(F)F)O1 recorded_metric="(%) Cytotoxicity" observed_result=1.69
compound=COc1cc(NC(=O)Nc2cccc(CNC(=O)O[C@H]3CCOC3)c2)ccc1-c1cnco1 recorded_metric="(%) Cytotoxicity" observed_result=0.74
compound="O=C(O)P(=O)(O)O [Foscarnet sodium]" recorded_metric="(%) Cytotoxicity" observed_result=1.07
compound="C=C1[C@H](CO)[C@@H](O)C[C@@H]1n1cnc2c(=O)[nH]c(N)nc21 [Entecavir hydrate]" recorded_metric="(%) Cytotoxicity" observed_result=-1.04
compound=C[C@H](Cn1cnc2c(N)ncnc21)OCP(=O)(O)O recorded_metric="(%) Cytotoxicity" observed_result=0.98
compound=CC(C)(C)C(=O)OCOP(=O)(COCCn1cnc2c(N)ncnc21)OCOC(=O)C(C)(C)C recorded_metric="(%) Cytotoxicity" observed_result=3.59
compound="CC(C)[C@H](N)C(=O)OCC(CO)OCn1cnc2c(=O)nc(N)[nH]c21 (stereo partly shown) [Valganciclovir hydrochloride]" recorded_metric="(%) Cytotoxicity" observed_result=0.33
compound=C=CC1=C(C(=O)O)N2C(=O)[C@@H](NC(=O)/C(=N\OCC(=O)O)c3csc(N)n3)[C@H]2SC1 recorded_metric="(%) Cytotoxicity" observed_result=2.28
compound=COC1=C2C[C@@H](C)C[C@H](OC)[C@H](O)[C@@H](C)/C=C(\C)[C@H](OC(N)=O)[C@@H](OC)/C=C\C=C(/C)C(=O)NC(=CC1=O)C2=O recorded_metric="(%) Cytotoxicity" observed_result=67.53
compound=CN(C)c1ccc(C(=C2C=CC(=[N+](C)C)C=C2)c2ccc(N(C)C)cc2)cc1 recorded_metric="(%) Cytotoxicity" observed_result=55.49
compound=O=c1[nH]c(=O)n([C@H]2C[C@H](O)[C@@H](CO)O2)cc1C(F)(F)F recorded_metric="(%) Cytotoxicity" observed_result=0.46
compound="CC[C@@H](CO)NCCN[C@@H](CC)CO [Ethambutol dihydrochloride]" recorded_metric="(%) Cytotoxicity" observed_result=0.23
compound=Cc1cn([C@@H]2C[C@@H](O)[C@H](CO)O2)c(=O)[nH]c1=O recorded_metric="(%) Cytotoxicity" observed_result=-0.33
compound=CCS(=O)(=O)CCn1c([N+](=O)[O-])cnc1C recorded_metric="(%) Cytotoxicity" observed_result=-0.09
